- experimental_details: Reverse-phase thin-layer chromatographic lipophilicity (RF, RM0)
- Format: physicochemical
- applied_conditions: RP-18 silica; V = 70%MeOH/25%H2O/5%HCl
assay_readout: RF, Methanol/Water/Hydrochloric acid (conc.), mobile phase V
# answer = number (no unit)

Reference set (2 entries):
Entry FC(F)(F)c1ccc2c(NCCNCC34CC5CC(CC(C5)C3)C4)ccnc2c1 , RF, Methanol/Water/Hydrochloric acid (conc.), mobile phase V reported as 0.44

Entry Clc1ccc2c(NCCNCC34CC5CC(CC(C5)C3)C4)ccnc2c1 , RF, Methanol/Water/Hydrochloric acid (conc.), mobile phase V reported as 0.48

Now, please, on to the next molecule.
Entry Clc1ccc2c(NCCCCN(CCC34CC5CC(CC(C5)C3)C4)CCC34CC5CC(CC(C5)C3)C4)ccnc2c1 , RF, Methanol/Water/Hydrochloric acid (conc.), mobile phase V reported as 0.05
